FYI, the data here is from patent US20250368734A1.

Target: T1, human GPRC5D (human, UniProt Q9NZD1 1-345)
T1 construct: whole, on cells; also called hGPRC5D; G-protein coupled receptor family C group 5 member D
T1 sequence (Q9NZD1 whole entry): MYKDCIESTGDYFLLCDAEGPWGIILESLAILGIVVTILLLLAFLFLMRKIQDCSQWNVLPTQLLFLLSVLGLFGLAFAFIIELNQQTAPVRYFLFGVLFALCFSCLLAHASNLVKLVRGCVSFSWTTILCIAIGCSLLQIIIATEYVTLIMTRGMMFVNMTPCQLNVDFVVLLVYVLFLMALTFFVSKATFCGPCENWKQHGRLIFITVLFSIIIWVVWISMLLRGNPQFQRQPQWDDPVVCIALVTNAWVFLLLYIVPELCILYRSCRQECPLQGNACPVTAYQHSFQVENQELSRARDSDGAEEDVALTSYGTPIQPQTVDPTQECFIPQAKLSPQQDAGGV
Experiment: FACS, CHOS-hGPRC5D cells
Top strictly under 3000 means Yes; at 3000 or over means No.

Query block: Hello, I'm reviewing records and need to know if Top of ch116F1G6 (antibody, V domains shown) VH: EVQLQHSGPELVKPGASVKMSCKASGYTFTTYVMHWVKQKPGQGLEWIGYINPYNDGTKYNEKFKGKATLTSDKSSSTAYMELSSLTSEDSAVYYCARGGVRRYFDVWGAGTTVTVSS VL: DIQMTQSPSSLSASLGERVSLTCRASQDIGSNLNWLQQEPNGTIKRLIYATFTLDSGVPKRFSGSRSGSDYSLTISSLESEDFVDYYCLQYASFPYTFGGGTKLEIK is below 3000. Could you check?
Result block: Yes

Query block: Hello, I'm reviewing records and need to know if Top of ch12G12C2 (antibody, V domains shown) VH: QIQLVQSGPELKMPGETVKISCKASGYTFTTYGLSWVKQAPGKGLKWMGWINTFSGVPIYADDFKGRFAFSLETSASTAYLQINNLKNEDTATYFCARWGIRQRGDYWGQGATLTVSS VL: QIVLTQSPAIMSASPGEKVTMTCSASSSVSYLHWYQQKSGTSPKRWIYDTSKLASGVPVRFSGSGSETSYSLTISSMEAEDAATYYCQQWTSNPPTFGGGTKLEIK is below 3000. Could you check?
Result block: No

Query block: Hello, I'm reviewing records and need to know if Top of ch110B4H5 (antibody, V domains shown) VH: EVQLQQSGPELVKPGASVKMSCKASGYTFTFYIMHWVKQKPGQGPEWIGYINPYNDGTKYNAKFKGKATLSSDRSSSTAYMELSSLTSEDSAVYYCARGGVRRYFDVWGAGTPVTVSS VL: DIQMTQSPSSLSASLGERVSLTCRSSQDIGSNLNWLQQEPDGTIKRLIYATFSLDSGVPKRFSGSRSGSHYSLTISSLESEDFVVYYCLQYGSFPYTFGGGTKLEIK is below 3000. Could you check?
Result block: Yes

Query block: Hello, I'm reviewing records and need to know if Top of ch96C9E7 (antibody, V domains shown) VH: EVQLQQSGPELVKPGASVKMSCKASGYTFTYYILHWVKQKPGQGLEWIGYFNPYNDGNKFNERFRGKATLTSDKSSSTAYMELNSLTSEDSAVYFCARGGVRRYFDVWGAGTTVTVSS VL: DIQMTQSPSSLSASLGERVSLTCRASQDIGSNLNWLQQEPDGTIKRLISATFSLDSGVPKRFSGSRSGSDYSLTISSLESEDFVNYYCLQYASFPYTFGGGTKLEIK is below 3000. Could you check?
Result block: Yes

Query block: Hello, I'm reviewing records and need to know if Top of ch20C4E1 (antibody, V domains shown) VH: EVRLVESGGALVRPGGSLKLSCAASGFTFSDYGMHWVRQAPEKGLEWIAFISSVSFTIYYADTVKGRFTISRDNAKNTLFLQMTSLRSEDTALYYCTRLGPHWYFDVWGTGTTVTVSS VL: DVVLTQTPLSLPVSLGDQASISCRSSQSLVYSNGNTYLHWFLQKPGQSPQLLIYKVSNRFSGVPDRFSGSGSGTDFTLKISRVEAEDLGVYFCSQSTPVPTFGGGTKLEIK is below 3000. Could you check?
Result block: No
